# Tested on: antibiotic binding protein
# experimental-protocol: Antibiotic residue test for β-lactams in milk (sequential assay; HRPO-labelled antibiotic binding protein, immobilized 7ACA-spacer-BSA)
# Design: species or system Bacillus stearothermophilus
# condition: test according to Example 1; other β-lactams
Reported sensitivity ppb values for the following molecules.
The reply should contain only the number, in ppb.

Req: Look up and state reported sensitivity ppb for CO/N=C(\C(=O)N[C@@H]1C(=O)N2C(C(=O)O)=C(CSC(=O)c3ccco3)CS[C@H]12)c1csc(N)n1 [Ceftiofur]
Resp: 5

Req: Look up and state reported sensitivity ppb for CC1(C)S[C@@H]2[C@H](NC(=O)[C@H](N)c3ccccc3)C(=O)N2[C@H]1C(=O)O [Ampicillin]
Resp: 10

Req: Look up and state reported sensitivity ppb for CC(=O)OCC1=C(C(=O)O)N2C(=O)[C@@H](NC(=O)CSc3ccncc3)[C@H]2SC1 [Cephapirin]
Resp: 5

Req: Look up and state reported sensitivity ppb for CC1(C)S[C@@H]2[C@H](NC(=O)[C@H](N)c3ccc(O)cc3)C(=O)N2[C@H]1C(=O)O [Amoxicillin]
Resp: 5
